# System: Leptosphaeria nodorum—LEPTNO
# assayProcedure: Glume blotch of wheat, 1-day protectant whole plant test
# Format: in vivo
# particulars: 100 ppm spray, 1-day protectant (1DP), wheat cultivar Monon
List of LEPTNO percent control of the plant disease compared with untreated, inoculated plants values.
measuredMetric: LEPTNO percent control of the plant disease compared with untreated, inoculated plants (%)

                                   molecule  reportedvalue
0  CNC(=O)C(=NOC)c1ccccc1COc1ncc(Sc2ccccc2)cc1Cl [Compound 3]             90
1  CNC(=O)C(=NOC)c1ccccc1COc1cccc(Sc2ccc(F)cc2)n1 [Compound 24]             98
2  CNC(=O)C(=NOC)c1ccccc1COc1nc(Sc2ccc(C(F)(F)F)cc2)c(Cl)cc1Cl [Compound 13]              0
3  CNC(=O)C(=NOC)c1ccccc1COc1cccc(Sc2cccc(C)c2)n1 [Compound 16]             89
4  CNC(=O)C(=NOC)c1ccccc1COc1cccc(Sc2ccccc2C(F)(F)F)n1 [Compound 29]             78
5  CNC(=O)C(=NOC)c1cccc(Cl)c1COc1ccc(Sc2cccc(C)c2)cn1 [Compound 7]             98
6  CNC(=O)C(=NOC)c1ccccc1COc1cccc(Sc2c(C)cccc2C)n1 [Compound 26]             89
7  CNC(=O)C(=NOC)c1cccc(Cl)c1COc1ccc(Sc2ccc(Cl)cc2)cn1 [Compound 5]             98

====

# System: Leptosphaeria nodorum—LEPTNO
# assayProcedure: Glume blotch of wheat, 1-day protectant whole plant test
# Assay type: in vivo
# particulars: 100 ppm spray, 1-day protectant (1DP), wheat cultivar Monon
List of LEPTNO percent control of the plant disease compared with untreated, inoculated plants values.
measuredMetric: LEPTNO percent control of the plant disease compared with untreated, inoculated plants (%)

In [3]: df
Out[3]:
                            structuresmiles                  systemtested  displayunit  reportedvalue
0  CNC(=O)C(=NOC)c1ccccc1COc1cccc(Sc2ccccc2F)n1  Leptosphaeria nodorum—LEPTNO            %             98
1  CNC(=O)C(=NOC)c1ccccc1COc1cccc(Sc2cccc(F)c2)n1  Leptosphaeria nodorum—LEPTNO            %             98
2  CNC(=O)C(=NOC)c1ccccc1COc1cccc(Sc2ccccc2C)n1  Leptosphaeria nodorum—LEPTNO            %             98
3  CNC(=O)C(=NOC)c1cccc(F)c1COc1cccc(Sc2ccccc2)n1  Leptosphaeria nodorum—LEPTNO            %             98
4  CNC(=O)C(=NOC)c1ccccc1COc1nc(Sc2ccccc2)c(F)cc1F  Leptosphaeria nodorum—LEPTNO            %             98
5  CNC(=O)C(=NOC)c1ccccc1COc1cccc(Sc2ccc(C)cc2)n1  Leptosphaeria nodorum—LEPTNO            %             67
6  CNC(=O)C(=NOC)c1ccccc1COc1cccc(Sc2ccccc2)n1  Leptosphaeria nodorum—LEPTNO            %             89
7  CNC(=O)C(=NOC)c1ccccc1COc1cccc(Sc2ccc(Cl)cc2C)n1  Leptosphaeria nodorum—LEPTNO            %             98
8  CNC(=O)C(=NOC)c1ccccc1COc1cccc(Sc2cccc(Cl)c2)n1  Leptosphaeria nodorum—LEPTNO            %             78
